What IC50 was measured for each of the following?
Molecular target: CRBN/DDB1 (Homo sapiens (Human))
Sequence (Q96SW2 whole entry): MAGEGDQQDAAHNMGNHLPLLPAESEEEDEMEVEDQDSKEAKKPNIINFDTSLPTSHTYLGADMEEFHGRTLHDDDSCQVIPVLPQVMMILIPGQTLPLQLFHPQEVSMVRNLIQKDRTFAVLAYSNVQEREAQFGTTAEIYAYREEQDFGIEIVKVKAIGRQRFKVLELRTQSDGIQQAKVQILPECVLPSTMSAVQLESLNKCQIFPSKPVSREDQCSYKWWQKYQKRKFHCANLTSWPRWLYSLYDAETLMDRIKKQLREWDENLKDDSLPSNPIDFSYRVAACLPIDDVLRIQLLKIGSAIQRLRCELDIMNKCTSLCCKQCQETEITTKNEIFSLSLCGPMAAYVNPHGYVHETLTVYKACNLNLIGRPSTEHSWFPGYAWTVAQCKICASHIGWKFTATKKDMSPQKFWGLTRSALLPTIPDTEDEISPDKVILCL
Sequence (Q16531 whole entry partner): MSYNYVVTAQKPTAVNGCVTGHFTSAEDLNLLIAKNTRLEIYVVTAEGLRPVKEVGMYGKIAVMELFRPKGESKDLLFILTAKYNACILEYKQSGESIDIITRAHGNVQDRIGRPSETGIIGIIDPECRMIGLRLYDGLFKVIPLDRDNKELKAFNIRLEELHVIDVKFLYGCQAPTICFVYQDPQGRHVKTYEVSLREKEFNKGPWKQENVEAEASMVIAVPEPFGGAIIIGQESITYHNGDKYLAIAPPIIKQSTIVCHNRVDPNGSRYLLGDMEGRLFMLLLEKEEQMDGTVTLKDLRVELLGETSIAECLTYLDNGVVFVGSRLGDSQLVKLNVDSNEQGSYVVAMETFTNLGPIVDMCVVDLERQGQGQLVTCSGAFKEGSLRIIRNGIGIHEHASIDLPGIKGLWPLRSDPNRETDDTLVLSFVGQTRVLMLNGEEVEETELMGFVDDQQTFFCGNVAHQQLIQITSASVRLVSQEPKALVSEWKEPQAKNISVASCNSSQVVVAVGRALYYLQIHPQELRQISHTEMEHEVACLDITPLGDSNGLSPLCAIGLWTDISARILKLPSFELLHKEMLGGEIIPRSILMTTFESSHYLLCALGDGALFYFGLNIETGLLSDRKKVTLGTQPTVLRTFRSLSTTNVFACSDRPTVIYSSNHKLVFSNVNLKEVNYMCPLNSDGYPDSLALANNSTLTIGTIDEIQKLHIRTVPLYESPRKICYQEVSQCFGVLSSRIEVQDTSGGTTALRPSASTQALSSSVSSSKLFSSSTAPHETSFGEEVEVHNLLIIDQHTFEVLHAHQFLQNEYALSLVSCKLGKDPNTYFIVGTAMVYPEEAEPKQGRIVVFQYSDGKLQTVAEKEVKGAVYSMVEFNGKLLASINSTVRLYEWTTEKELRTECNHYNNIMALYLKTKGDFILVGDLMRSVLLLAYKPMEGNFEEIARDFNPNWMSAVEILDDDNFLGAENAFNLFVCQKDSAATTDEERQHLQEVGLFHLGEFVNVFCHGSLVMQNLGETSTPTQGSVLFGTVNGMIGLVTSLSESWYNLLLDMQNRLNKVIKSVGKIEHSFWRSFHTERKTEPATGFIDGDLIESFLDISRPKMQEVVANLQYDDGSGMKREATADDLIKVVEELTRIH
Assay type: binding
Details: His tagged CRBN+DDB-DLS7+CXU4, Cy5-labeled Thalidomide probe, one hour incubation; read-out: CRBN HTRF IC50
Counter-ions that a name gives are not always drawn.

According to the records, this molecule CS(=O)(=O)N1CCc2c([nH]c3ccccc23)[C@H]1c1c(F)cc(N2CCC3(CCN(C(=O)CN4Cc5cc6c(cc5C4)C(=O)N(C4CCC(=O)NC4=O)C6=O)CC3)CC2)cc1F (some centres unmarked) [Compound A21] displays IC50 of > 5000 nM

Documented IC50 of COc1cc(N2CCC(CN3CCN(c4ccc(C(=O)NC5CCC(=O)NC5=O)nc4OC)CC3)CC2)ccc1[C@@H]1c2[nH]c3ccccc3c2C[C@@H](C)N1CC(F)F (some centres unmarked) : > 5000 nM

// IC50 value for C[C@H]1Cc2c([nH]c3ccccc23)[C@H](c2cnc(N3CCC4(CC3)C[C@@H](CN3CCC(c5ccc(N[C@@H]6CCC(=O)NC6=O)cc5)CC3)CO4)nc2)N1CC(F)F : 50 to 500 nM

Lab note: COc1cc(N2CCC(CN3CCN4c5cc6c(cc5OC[C@@H]4C3)C(=O)N([C@H]3CCC(=O)NC3=O)C6)CC2)ccc1[C@@H]1c2[nH]c3ccccc3c2C[C@@H](C)N1CC(F)F [Compound A29] gave IC50 of 500 to 5000 nM

Consider COc1cc(N2CCC(CN3CCN4c5ccc6c(c5OC[C@H]4C3)CN([C@H]3CCC(=O)NC3=O)C6=O)CC2)ccc1[C@H]1c2[nH]c3ccccc3c2C[C@@H](C)N1CC(F)F . Its measured IC50 is 50 to 500 nM

COc1cc(N2CCC(CN3CCN4c5ccc6c(c5OC[C@@H]4C3)CN([C@H]3CCC(=O)NC3=O)C6=O)CC2)ccc1[C@@H]1c2[nH]c3ccccc3c2C[C@@H](C)N1CC(F)F yielded IC50 of > 5000 nM

Looking up C[C@@H]1Cc2c([nH]c3ccccc23)[C@@H](c2cnc(N3CCC(N4CCN(c5ccc(NC6CCC(=O)NC6=O)cc5F)CC4)CC3)nc2)N1CC(F)F (some centres unmarked) , I found its IC50 recorded as 500 to 5000 nM

Reported IC50 ( COc1cc(N2CCC(CN3CCN4c5ccc(C(=O)NC6CCC(=O)NC6=O)nc5OC[C@H]4C3)CC2)ccc1[C@@H]1c2[nH]c3ccccc3c2C[C@@H](C)N1CC(F)F (some centres unmarked) [Compound A51, formate] ) = 500 to 5000 nM

C[C@@H]1Cc2c([nH]c3ccccc23)[C@@H](c2cnc(N3C[C@@H]4[C@@H](CN5CCN6c7cc8c(cc7OC[C@@H]6C5)C(=O)N(C5CCC(=O)NC5=O)C8)[C@@H]4C3)nc2)N1CC(F)F (some centres unmarked) has a reported IC50 of 500 to 5000 nM

The molecule listed as COc1cc(N2CCC(CN3CCN4c5ccc6c(c5OC[C@@H]4C3)CN([C@@H]3CCC(=O)NC3=O)C6=O)CC2)ccc1[C@@H]1c2[nH]c3ccccc3c2C[C@@H](C)N1CC(F)F has a reported IC50 of 500 to 5000 nM

The recorded IC50 for COc1cc(N2CCC(CN3CCN4c5cc6c(cc5OC[C@@H]4C3)C(=O)N([C@@H]3CCC(=O)NC3=O)C6)CC2)ccc1[C@H]1c2[nH]c3ccccc3c2C[C@H](C)N1CC(F)F is 50 to 500 nM

Data provenance: patent US20260007681A1
